The reported numbers originate from patent US20070167405A1.

# test target: recombinant human galectin-1 (Homo sapiens, UniProt P09382)
# Sequence (P09382 whole entry): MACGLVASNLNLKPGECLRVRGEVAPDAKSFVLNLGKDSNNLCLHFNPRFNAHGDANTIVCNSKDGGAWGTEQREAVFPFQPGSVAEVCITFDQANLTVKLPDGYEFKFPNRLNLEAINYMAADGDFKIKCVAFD
# run description: SPR (BIAcore) equilibrium binding to immobilized galectin-1
# condition label: SPR assay
# Description: Galectin binding affinity measurements were performed in a surface plasmon resonance (SPR) assay using […] instrument (BIAcore, Inc, Uppsala, Sweden). PBS with 5 mM β-mercaptoethanol was used as running buffer for all experiments. Purified recombinant human galectin-1 and galectin-4 were immobilized at different surface densities on CM5 carboxymethyldextran chip (BIAcore) in the presence of 150 mM lactose, using standard amine coupling chemistry. […]
reported property: binding to galectin-1 (in words)

| molecule | measured |
| --- | --- |
| OC[C@H]1O[C@@](CO)(O[C@H]2O[C@H](CO)[C@@H](O)[C@H](O)[C@H]2O)[C@@H](O)[C@@H]1O [Sucrose, reference compound] | unable to bind |
| OC[C@H]1O[C@H](O[C@H]2[C@H](O)[C@@H](O)[C@H](O)O[C@@H]2CO)[C@H](O)[C@@H](O)[C@@H]1O [Maltose, reference compound] | unable to bind |
